SUBJECT_OF_TEST: recombinant Epstein Barr virus (EBV) IL10 (Epstein Barr virus, UniProt P03180 24-170)
Sequence (P03180 24-170 limits assumed): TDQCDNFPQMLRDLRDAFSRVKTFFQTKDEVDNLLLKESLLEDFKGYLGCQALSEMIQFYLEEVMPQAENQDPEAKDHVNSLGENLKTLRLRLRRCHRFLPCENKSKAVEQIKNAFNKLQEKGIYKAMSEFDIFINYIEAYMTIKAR
TEST_METHOD_NOTES: concentration-dependent changes in fluorescence intensity of the environment-sensitive fluorescein label on the peptide
Non-standard residues stand in square brackets, D forms with d. Fluo = fluorescein on the Cys side-chain sulfur; Nle = CCCC[C@H](N)C(=O)O
ASSAY_READOUT: Kd (nM)
Provide only the numeric value, understood in nM.

Reported Kd for Ac-C(Fluo)YKA[Nle]SEFDIFINYIEAY[Nle]T[Nle]KIRN-NH2 (also called fluorescent derivative of helix F of IL10; helix F analog) [IL10-HF-6] was 50
